Entries and their AC50 values follow.
Biological target: Neuropeptide Y receptor type 1 (Homo sapiens); also: assay procedure not described here
Sequence (P25929 whole entry): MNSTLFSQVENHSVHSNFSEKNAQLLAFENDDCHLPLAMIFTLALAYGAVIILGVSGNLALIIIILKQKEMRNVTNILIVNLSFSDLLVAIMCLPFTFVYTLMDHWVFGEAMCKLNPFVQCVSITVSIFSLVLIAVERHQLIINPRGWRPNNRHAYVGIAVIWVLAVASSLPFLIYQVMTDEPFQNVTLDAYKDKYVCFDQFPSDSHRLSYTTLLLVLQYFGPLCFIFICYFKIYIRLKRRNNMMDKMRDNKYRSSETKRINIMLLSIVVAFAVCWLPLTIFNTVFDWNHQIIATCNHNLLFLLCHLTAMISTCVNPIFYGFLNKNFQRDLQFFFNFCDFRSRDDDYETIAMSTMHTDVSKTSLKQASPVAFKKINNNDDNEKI

Nc1nnc(-c2cccc(Cl)c2Cl)c(N)n1
> 30 µM
CC1=C(C(=O)O)N2C(=O)[C@@H](NC(=O)[C@H](N)C3=CCC=CC3)[C@H]2SC1
> 30 µM
CN(C)CCCC1(c2ccc(F)cc2)OCc2cc(C#N)ccc21 (stereo not drawn)
> 30 µM
C[C@@H](Cc1ccccc1)N(C)Cc1ccccc1
> 10 µM
CCN(CC)CCCN(c1ccccc1)C1Cc2ccccc2C1
> 30 µM

**Query** Identify measured AC50 associated with COc1ccc(-c2cc(=S)ss2)cc1
**Result** 9.8 µM

**Query** Provide one value: measured AC50 of C[C@H](Cn1cnc2c(N)ncnc21)OCP(=O)(O)O [TENOFOVIR ANHYDROUS]
**Result** > 30 µM

**Query** Determine its reported AC50: CN(Cc1ccc(C(C)(C)C)cc1)Cc1cccc2ccccc12
**Result** > 10 µM

**Query** For the molecule COC(=O)[C@H]1[C@H]2C[C@@H]3c4[nH]c5ccccc5c4CCN3C[C@H]2C[C@@H](OC(=O)c2cc(OC)c(OC)c(OC)c2)[C@@H]1OC , report AC50.
**Result** > 30 µM

**Query** Give the reported AC50 for this molecule. O=C(C[S+]([O-])Cc1ccco1)NC/C=C\COc1cc(CN2CCCCC2)ccn1 (stereo not drawn)
**Result** > 10 µM

* * *

Target: Alpha-2A adrenergic receptor (Homo sapiens, UniProt P08913); also: assay procedure not described here
Sequence (P08913 whole entry): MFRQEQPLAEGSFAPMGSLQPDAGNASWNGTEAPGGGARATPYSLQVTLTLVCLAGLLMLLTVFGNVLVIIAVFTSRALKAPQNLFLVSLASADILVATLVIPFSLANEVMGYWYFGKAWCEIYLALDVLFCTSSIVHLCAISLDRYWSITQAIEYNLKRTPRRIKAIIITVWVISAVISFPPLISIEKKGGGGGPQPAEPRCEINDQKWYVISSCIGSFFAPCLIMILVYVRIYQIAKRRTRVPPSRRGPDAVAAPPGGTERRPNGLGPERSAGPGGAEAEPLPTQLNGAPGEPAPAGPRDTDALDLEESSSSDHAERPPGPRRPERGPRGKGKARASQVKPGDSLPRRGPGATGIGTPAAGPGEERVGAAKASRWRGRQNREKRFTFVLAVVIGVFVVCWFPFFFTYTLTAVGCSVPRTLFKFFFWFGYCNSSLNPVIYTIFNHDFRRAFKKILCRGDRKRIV
Type: functional, cell-based
Measure name: AC50

// below: answered compounds
COC(=O)[C@H]1[C@H]2C[C@@H]3c4[nH]c5ccccc5c4CCN3C[C@H]2C[C@@H](OC(=O)c2cc(OC)c(OC)c(OC)c2)[C@@H]1OC
> 10 µM
CC1Cc2ccccc2N1NC(=O)c1ccc(Cl)c(S(N)(=O)=O)c1 (stereo not drawn) [INDAPAMIDE]
> 10 µM
CO/N=C(\C(=O)N[C@@H]1C(=O)N2C(C(=O)O)=C(CSc3nc(C)c(CC(=O)O)s3)CS[C@H]12)c1csc(N)n1
> 30 µM
CN1C(=O)CN=C(c2ccccc2F)c2cc([N+](=O)[O-])ccc21
> 10 µM
CCC(NC(C)C)C(O)c1ccc(O)c(O)c1 (stereo not drawn)
> 30 µM
CC1CC(OC(=O)C(O)c2ccccc2)CC(C)(C)C1 (stereo not drawn) [CYCLANDELATE]
> 10 µM

**Query** Indicate the recorded AC50 value for this compound: C[C@]12C=CC(=O)C=C1CC[C@@H]1[C@@H]2[C@@H](O)C[C@@]2(C)[C@H]1CC[C@]2(O)C(=O)CO
**Result** > 10 µM

**Query** Return the recorded AC50 value; entry: C[C@H](Cn1cnc2c(N)ncnc21)OCP(=O)(O)O [TENOFOVIR ANHYDROUS]
**Result** > 30 µM

**Query** Given the compound CN(C)CCOCC(=O)NC12CC3CC(CC(C3)C1)C2 , write its reported AC50.
**Result** > 30 µM

**Query** # return recorded AC50 for entry CCCCCCCC(=O)CC[C@@H]1[C@@H](C/C=C\CCCC(=O)O)[C@@H](O)C[C@H]1O
**Result** > 30 µM

* * *

Target: 5-hydroxytryptamine receptor 2C (Homo sapiens); also: assay procedure not described here
Sequence (P28335 whole entry): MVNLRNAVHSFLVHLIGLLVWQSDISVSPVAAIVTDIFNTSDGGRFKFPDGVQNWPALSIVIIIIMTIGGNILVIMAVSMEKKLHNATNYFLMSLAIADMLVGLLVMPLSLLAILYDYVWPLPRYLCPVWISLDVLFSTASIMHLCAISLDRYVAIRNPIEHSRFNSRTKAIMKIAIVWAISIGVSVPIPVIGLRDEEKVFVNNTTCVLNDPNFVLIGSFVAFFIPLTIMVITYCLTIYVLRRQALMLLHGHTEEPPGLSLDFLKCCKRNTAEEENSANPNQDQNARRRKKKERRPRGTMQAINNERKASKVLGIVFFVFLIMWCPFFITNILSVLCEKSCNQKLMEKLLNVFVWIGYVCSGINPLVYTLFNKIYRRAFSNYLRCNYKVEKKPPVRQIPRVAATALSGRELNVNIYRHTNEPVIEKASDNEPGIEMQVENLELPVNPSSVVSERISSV
Measure name: AC50

**Query** For 5-hydroxytryptamine receptor 2C (Homo sapiens), give the measured AC50 of the entry CC(=O)SCC(Cc1ccccc1)C(=O)NCC(=O)OCc1ccccc1 (centres undefined)
**Result** > 30 µM

**Query** Lab note: 5-hydroxytryptamine receptor 2C (Homo sapiens) assay, enter AC50 for Cc1ccc(-c2ncc(Cl)cc2-c2ccc(S(C)(=O)=O)cc2)cn1 here
**Result** > 10 µM

**Query** Report value: AC50, system: 5-hydroxytryptamine receptor 2C (Homo sapiens), compound: O=C1[C@@H]2[C@H]3CC[C@H](C3)[C@@H]2C(=O)N1C[C@@H]1CCCC[C@H]1CN1CCN(c2nsc3ccccc23)CC1; also: assay procedure not described here
**Result** 25 µM

**Query** Identify measured AC50 obtained with 5-hydroxytryptamine receptor 2C (Homo sapiens) for COc1ccc(-c2cc(=S)ss2)cc1 .
**Result** > 30 µM

* * *

Molecular target: Equilibrative nucleoside transporter 1 (Homo sapiens, UniProt Q99808); also: assay procedure not described here
Sequence (Q99808 whole entry): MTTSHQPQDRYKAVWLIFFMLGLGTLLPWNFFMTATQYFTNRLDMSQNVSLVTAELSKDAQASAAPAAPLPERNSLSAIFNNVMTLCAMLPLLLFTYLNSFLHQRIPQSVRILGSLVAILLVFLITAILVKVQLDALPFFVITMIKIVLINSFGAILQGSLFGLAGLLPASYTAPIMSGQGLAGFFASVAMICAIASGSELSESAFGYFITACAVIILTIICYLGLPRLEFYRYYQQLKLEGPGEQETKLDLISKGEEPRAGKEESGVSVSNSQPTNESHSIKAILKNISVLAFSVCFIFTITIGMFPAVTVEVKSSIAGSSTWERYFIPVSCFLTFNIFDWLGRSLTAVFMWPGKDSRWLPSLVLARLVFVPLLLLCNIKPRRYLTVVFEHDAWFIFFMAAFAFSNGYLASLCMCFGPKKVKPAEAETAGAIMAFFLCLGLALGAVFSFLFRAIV
Measure name: AC50

Example compounds with recorded AC50:
O=C(c1ccccc1)c1ccc2n1CCC2C(=O)O (stereo not drawn)
> 10 µM
CC(C)(Oc1ccc(Cl)cc1)C(=O)OCCOC(=O)c1cccnc1 [ETOFIBRATE]
> 30 µM
NCCCCCC(=O)O
> 30 µM
CCOC(=O)O[C@]1(C(=O)COC(=O)CC)CC[C@H]2[C@@H]3CCC4=CC(=O)C=C[C@]4(C)[C@H]3[C@@H](O)C[C@@]21C [PREDNICARBATE]
> 10 µM
CCCCCCOC(=O)NC(=N)c1ccc(NCc2nc3cc(C(=O)N(CCC(=O)OCC)c4ccccn4)ccc3n2C)cc1 [DABIGATRAN ETEXILATE]
> 30 µM

**Query** Note down AC50 recorded for CN1CCC(=C2c3ccccc3CC(=O)c3sccc32)CC1
**Result** > 10 µM

**Query** Identify the reported AC50 for the following entry. CC(=O)NC[C@H]1CN(c2ccc(N3CCOCC3)c(F)c2)C(=O)O1
**Result** > 30 µM

**Query** Retrieve AC50 measured for Cc1c(C)c2c(c(C)c1O)CCC(C)(COc1ccc(CC3SC(=O)NC3=O)cc1)O2 (stereo not drawn) and print it.
**Result** > 30 µM

* * *

Target: Adenosine receptor A3 (Homo sapiens, UniProt P0DMS8); also: assay procedure not described here
Sequence (P0DMS8 whole entry): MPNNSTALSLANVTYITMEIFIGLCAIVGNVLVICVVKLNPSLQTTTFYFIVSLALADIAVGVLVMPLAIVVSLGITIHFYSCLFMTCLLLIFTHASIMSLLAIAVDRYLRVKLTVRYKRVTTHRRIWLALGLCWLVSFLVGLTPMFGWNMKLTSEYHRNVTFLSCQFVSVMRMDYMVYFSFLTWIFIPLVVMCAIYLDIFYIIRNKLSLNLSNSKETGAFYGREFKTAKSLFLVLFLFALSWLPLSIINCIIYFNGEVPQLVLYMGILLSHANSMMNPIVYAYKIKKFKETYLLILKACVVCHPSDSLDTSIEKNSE
Measure name: AC50

Use these answered entries as a reference point.
COc1cc(C[C@@H]2NCCc3cc(O)c(O)cc32)cc(OC)c1OC
> 30 µM
CC(C)NC[C@H](O)COc1ccc(O)cc1
> 30 µM

**Query** Output reported AC50 of the compound CN1CCN(C(c2ccccc2)c2ccc(Cl)cc2)CC1 (stereo unspecified) on Adenosine receptor A3 (Homo sapiens, UniProt P0DMS8).
**Result** > 30 µM

**Query** Please tell me the measured AC50 for NC(=O)N/N=C/c1ccc([N+](=O)[O-])o1 ; system: Adenosine receptor A3 (Homo sapiens, UniProt P0DMS8). Also: assay procedure not described here.
**Result** > 30 µM

**Query** Return reported AC50 for target or system Adenosine receptor A3 (Homo sapiens, UniProt P0DMS8), item Cc1ccc2c([nH]c(=O)c3c(=O)cc(C(=O)OCCC(C)C)oc32)c1C . Also: assay procedure not described here.
**Result** 0.0521 µM

**Query** Supply AC50 measured with Adenosine receptor A3 (Homo sapiens, UniProt P0DMS8) for CC(=O)OCC(=O)[C@@]1(OC(C)=O)[C@@H](C)C[C@H]2[C@@H]3C[C@H](F)C4=CC(=O)C=C[C@]4(C)[C@@]3(F)[C@@H](O)C[C@@]21C [DIFLORASONE DIACETATE] .
**Result** > 30 µM

**Query** Enter measured AC50, system Adenosine receptor A3 (Homo sapiens, UniProt P0DMS8), for the compound shown: CCOc1ccc(Cc2nccc3cc(OCC)c(OCC)cc23)cc1OCC; also: assay procedure not described here
**Result** 3.11 µM

* * *

Below are AC50 values recorded for Gamma-aminobutyric acid receptor subunit alpha-1 (Rattus norvegicus).

Examples from the recorded data:
C=C(c1ccccc1OCc1cccc(Cl)c1)n1ccnc1
> 10 µM
CCC(=O)c1ccc2c(c1)N(CC(C)N(C)C)c1ccccc1S2 (centres undefined)
> 10 µM
CN(C)CCN(Cc1ccccc1)c1ccccn1
> 10 µM
NCC1(CC(=O)O)CCCCC1
> 10 µM
CC(=O)Oc1cccc2c1C(=O)c1c(OC(C)=O)cc(C(=O)O)cc1C2=O
> 30 µM
CC(=O)OCC(=O)[C@@]1(O)CC[C@H]2[C@@H]3CCC4=CC(=O)CC[C@]4(C)[C@@]3(F)[C@@H](O)C[C@@]21C [FLUDROCORTISONE ACETATE]
> 30 µM
CC(C)C[C@H](NC(=O)[C@H](Cc1ccccc1)NC(=O)c1cnccn1)B(O)O
> 30 µM
COc1ccc(-c2cc(=S)ss2)cc1
> 30 µM

Lab note: next molecule to report on.
**Query** For the molecule CC(C)(C)NCC(O)COc1ccccc1C#N (centres undefined) , give its reported AC50.
**Result** > 30 µM

* * *

Molecular target: Prostaglandin G/H synthase 1 (Rattus norvegicus, UniProt Q63921); also: assay procedure not described here
Sequence (Q63921 whole entry): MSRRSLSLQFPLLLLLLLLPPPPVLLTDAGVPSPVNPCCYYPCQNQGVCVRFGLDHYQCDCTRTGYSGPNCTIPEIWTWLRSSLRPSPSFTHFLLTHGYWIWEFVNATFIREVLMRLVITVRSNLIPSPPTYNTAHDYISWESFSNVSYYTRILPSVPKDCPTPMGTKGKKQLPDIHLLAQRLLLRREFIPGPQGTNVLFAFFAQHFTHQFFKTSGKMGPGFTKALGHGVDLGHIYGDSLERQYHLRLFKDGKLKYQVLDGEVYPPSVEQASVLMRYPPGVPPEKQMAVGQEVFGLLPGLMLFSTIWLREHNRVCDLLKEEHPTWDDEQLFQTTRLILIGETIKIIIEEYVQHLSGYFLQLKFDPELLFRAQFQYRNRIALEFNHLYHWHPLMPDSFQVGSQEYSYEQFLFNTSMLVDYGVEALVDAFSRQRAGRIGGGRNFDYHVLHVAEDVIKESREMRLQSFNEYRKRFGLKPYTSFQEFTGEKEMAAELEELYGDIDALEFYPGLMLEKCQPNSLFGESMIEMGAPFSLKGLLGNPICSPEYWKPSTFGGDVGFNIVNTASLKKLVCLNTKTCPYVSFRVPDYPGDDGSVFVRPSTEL
Format: functional
Readings of AC50 for the listed compounds

Below, 3 compounds whose answers are already recorded.
CN(C)CCCC1(c2ccc(F)cc2)OCc2cc(C#N)ccc21 (stereo not given)
> 30 µM
CC1CC(OC(=O)C(O)c2ccccc2)CC(C)(C)C1 (stereo not given) [CYCLANDELATE]
> 10 µM
O=c1[nH]cc(F)c(=O)[nH]1
> 30 µM

**Query** Please list AC50 recorded for the compound O=C(O[C@H]1C[N+]2(CCCOc3ccccc3)CCC1CC2)C(O)(c1cccs1)c1cccs1 [ACLIDINIUM BROMIDE]
**Result** > 30 µM

**Query** Provide one value: measured AC50 of CC(=O)SCC(Cc1ccccc1)C(=O)NCC(=O)OCc1ccccc1 (stereo not given)
**Result** > 30 µM
